Target: Spike S1 & S2 ECD (SARS-CoV-2) (UniProt P0DTC2)
Assay: filter
Details: Y=Tyr-dU, p=Nap-dC, position 28 DPP-dC; protein construct inferred
property: pKd
# pKd: negative log10 of molar concentration; output just the value

Give me measured pKd, please, for this sequence: GGGANANNANGNGNNNGANNGNNNGGANG [OH-26874-29_331]
9.89

====

Target: Spike S1 & S2 ECD (SARS-CoV-2) (UniProt P0DTC2)
Test: filter
Conditions: iBudU at 8; other dU Tyr-dU; dC Nap-dC; SB18T0.01, 37 C
property: pKd
Reminder that pKd means the negative base-10 logarithm of the concentration expressed in mol/L.

Identify measured pKd associated with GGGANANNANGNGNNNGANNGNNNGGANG [26874-29_138]
9.23
